Please respond with reported IC50 for every item in the list.
experimental system: NAMPT (human, recombinant, C-terminally His-tagged) (Homo sapiens)
Sequence (P43490 whole entry): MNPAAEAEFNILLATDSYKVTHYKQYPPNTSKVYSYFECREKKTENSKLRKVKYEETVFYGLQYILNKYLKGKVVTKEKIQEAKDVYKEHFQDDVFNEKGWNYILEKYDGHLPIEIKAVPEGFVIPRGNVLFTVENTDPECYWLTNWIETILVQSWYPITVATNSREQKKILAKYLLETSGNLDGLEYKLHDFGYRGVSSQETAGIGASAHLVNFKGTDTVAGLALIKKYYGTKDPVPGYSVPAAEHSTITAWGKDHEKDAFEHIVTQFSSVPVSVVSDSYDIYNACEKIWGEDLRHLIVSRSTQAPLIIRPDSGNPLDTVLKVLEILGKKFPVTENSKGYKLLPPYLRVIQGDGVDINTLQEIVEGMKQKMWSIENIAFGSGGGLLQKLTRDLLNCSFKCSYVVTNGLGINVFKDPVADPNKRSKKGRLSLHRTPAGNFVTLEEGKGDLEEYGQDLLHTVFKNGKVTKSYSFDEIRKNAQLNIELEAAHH
assay explanation: Time-Resolved Fluorescence Resonance Energy Transfer (TR-FRET) Binding Assay of NAMPT
measurement context: 6.8 nM NAMPT, 200 nM probe, equilibrated 3 hours, absence of substrates
One number for each entry, in nM.

Examples from the recorded data:
Cc1ncccc1N1CC(C(=O)Nc2ccc(C3CCN(C(=O)CN4CCN(C)CC4)CC3)cc2)C1: 524
CC(C)(C)CCN1CCC(c2ccc(NC(=O)C3CN(c4cccnc4)C3)cc2)CC1: 1390
CC(=O)N[C@@H](CC(C)C)C(=O)N1CCC(c2ccc(NC(=O)C3CN(c4cccnc4C)C3)cc2)CC1: 304
O=C(Nc1ccc(OC2CCN(C(=O)c3ccc(F)cc3F)CC2)cc1)C1CN(c2cccnn2)C1: 48
O=C(Nc1ccc(C2CCN(C(=O)C3(c4ccccc4)CC3)CC2)cc1)C1CN(c2cccnn2)C1: 15.1
O=C(Nc1ccc(C2CCN(C(=O)c3ccccc3)CC2)cc1)C1CN(c2cccnc2)C1: 5.05
CCCC(=O)N1CCC(Oc2ccc(NC(=O)C3CN(c4cccnc4)C3)cc2)CC1: 86.5
CCC(C)(C)C(=O)N1CCC(Oc2ccc(NC(=O)C3CN(c4cccnn4)C3)cc2)CC1: 82.6
O=C(Nc1ccc(OC2CCN(C(=O)CC3CCOCC3)CC2)cc1)[C@H]1CCN(c2cccnc2)C1: 2370
CCC(C)CC(=O)N1CCC(c2ccc(NC(=O)C3CN(c4cccnc4)C3)cc2)CC1 (stereo not shown): 13.5

Give one value of IC50 per listed compound.
1. O=C(Nc1ccc(C2CCN(C(=O)c3cccs3)CC2)cc1)C1CN(c2cccnn2)C1
2. CC1CC1C(=O)N1CCC(Oc2ccc(NC(=O)C3CN(c4cccnc4)C3)cc2)CC1 (stereo not shown)

1: 3.22; 2: 91.6
